target: human RXFP3 (Homo sapiens, UniProt Q9NSD7); construct: expressed in transfected cells; assay: RXFP3 competition binding assay with Eu-DTPA-R3/I5; conditions: HEK-293T cells stably transfected with human RXFP3; Eu-DTPA-R3/I5 tracer; n = 3; read-out: pIC50 (n = 3), binding affinities of single chain relaxin polypeptides for RXFP3 (converted)
Sequence (Q9NSD7 whole entry): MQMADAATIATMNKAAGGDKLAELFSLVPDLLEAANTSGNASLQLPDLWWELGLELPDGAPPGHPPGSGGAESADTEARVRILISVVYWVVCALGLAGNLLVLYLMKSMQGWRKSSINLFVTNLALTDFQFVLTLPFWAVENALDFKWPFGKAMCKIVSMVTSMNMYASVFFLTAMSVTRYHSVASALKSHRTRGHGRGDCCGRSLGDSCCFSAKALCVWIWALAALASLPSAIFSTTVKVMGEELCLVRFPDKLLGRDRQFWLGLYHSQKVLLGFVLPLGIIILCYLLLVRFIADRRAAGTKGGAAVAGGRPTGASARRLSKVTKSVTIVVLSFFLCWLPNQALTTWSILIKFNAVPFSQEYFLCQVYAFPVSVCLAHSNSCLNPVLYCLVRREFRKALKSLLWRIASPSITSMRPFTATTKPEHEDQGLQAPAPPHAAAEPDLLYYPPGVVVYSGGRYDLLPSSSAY
Where no end group is shown, it is not given here.
valueType: IC50 (nM)
Answer with a number only, understood to be in nM.

INPUT: Field request: IC50 | item: H-YGVRLSGREFIRAVIFTSR-NH2 [H3 B5-22R]
OUTPUT: 427

INPUT: Repeat for the following substance: H-RAAPYGVRLAGREFIRAVIFTAR-NH2 [H3 B1-22R C10/22A]
OUTPUT: 148

INPUT: Repeat for the following substance: H-PYGVRLSGREFIRAVIFTSR-NH2 [H3 B4-22R]
OUTPUT: 219

INPUT: Repeat for the following substance: H-GVRLSGREFIRAVIFTSR-NH2 [H3 B6-22R]
OUTPUT: 468

INPUT: Repeat for the following substance: H-RAAPYGVRLSGREFIRAVIFTSR-OH [H3 B1-22R Acid]
OUTPUT: 347

INPUT: Repeat for the following substance: H-AAPYGVRLSGREFIRAVIFTSR-NH2 [H3 B2-22R]
OUTPUT: 87.1

INPUT: Repeat for the following substance: RAAPYGVRLSGREFIRAVIFTSGGSRW-OH [H3 B-chain C10/22S, reference compound]
OUTPUT: 2510

INPUT: Repeat for the following substance: H-APYGVRLSGREFIRAVIFTSR-NH2 [H3 B3-22R]
OUTPUT: 195

----------
target: human RXFP3 (Homo sapiens, UniProt Q9NSD7); construct: expressed in transfected cells; assay: RXFP3 competition binding assay with Eu-DTPA-R3/I5
valueType: pIC50
pIC50 (log units): -log10 of the concentration in mol/L.

INPUT: Please provide the recorded pIC50 for H-RAAPYGVRLSGREFIRAVIFTSR-NH2 [H3 B1-22R] , tested on human RXFP3 (Homo sapiens, UniProt Q9NSD7).
OUTPUT: 7.75

// provenance: patent US9359422B2
